TARGET_OR_SYSTEM: SNAP-hSPR (sepiapterin reductase, SPR) (Homo sapiens)
ASSAY_SUMMARY: biochemical
Format: binding
EXPERIMENTAL_PARAMETERS: terbium labelled SNAP-hSPR / SSZ labelled SNAP-EGFP; read-out: hTR-FRET IC50
Give log10(IC50) for every item shown.
A value of 2 here means IC50 of 100 in nM, since values are log10.

Noted for Cc1c(C(=O)N2CC(c3ccc(F)cn3)C2)cnn1-c1nn2cccc2c(=O)[nH]1 : its log10(IC50) reads 0.30

log10(IC50) in this record for Cc1c(C(=O)N2CCN(c3nc(-c4cccc(C(F)(F)F)c4)cs3)CC2)cnn1-c1nn2cccc2c(=O)[nH]1 : 1.30

O=C(c1cn(-c2nn3cccc3c(=O)[nH]2)nn1)N1CCN(C2CCC2(F)F)CC1 (stereo not shown) has a reported log10(IC50) of 0.30

log10(IC50) recorded for this compound, O=C(c1cnn(-c2nc3c(c(=O)[nH]2)CCC3)c1)N1CCN(c2ccc(F)cc2F)CC1 , is 0.48

Note to self: log10(IC50) recorded for Cc1c(C(=O)N2CCCN(CC(F)(F)F)CC2)cnn1-c1nn2cccc2c(=O)[nH]1 was 0.48

Cc1c(C(=O)N2CCC(c3nc4ccc(F)cc4s3)CC2)cnn1-c1nc2c(c(=O)[nH]1)CCC2 yielded log10(IC50) of 0.48

// log10(IC50) value for Cc1c(C(=O)N2CCN(C(=O)C34CC(C(=O)O)(C3)C4)CC2)cnn1-c1nc2c(c(=O)[nH]1)CCC2 : 0.95

Summary for this compound, O=C(c1cnn(-c2nn3cccc3c(=O)[nH]2)c1)N1CCC(C(O)(C(F)(F)F)C(F)(F)F)CC1 : log10(IC50) is 0.30

The compound listed as Cc1c(C(=O)N2CCN(c3nc(-c4ccc(Cl)cc4)cs3)CC2)cnn1-c1nn2cccc2c(=O)[nH]1 has a reported log10(IC50) of 1.30

log10(IC50) for Cc1c(C(=O)N2CCC(c3c[nH]c4ccccc34)CC2)cnn1-c1nc2sccc2c(=O)[nH]1 is 0.48

Data point: Cc1c(C(=O)N2CCC(c3nccs3)CC2)cnn1-c1nc2c(c(=O)[nH]1)CCC2 ; log10(IC50) = 0.00

The compound listed as Cc1c(C(=O)N2CC3(C2)CC(F)(F)C3)cnn1-c1nc2c(c(=O)[nH]1)COC2 has a reported log10(IC50) of 1.70

log10(IC50) reading for Cc1c(C(=O)N2CCC(C)(C#N)CC2)cnn1-c1nc2c(c(=O)[nH]1)CCC2 : 0.48

Per the records, this compound ( O=C(c1cnn(-c2nn3cc(F)cc3c(=O)[nH]2)c1)N1CCC(C(F)(F)F)CC1 ) has log10(IC50) equal to 0.30

Noted for Cc1c(C(=O)N2CCN(c3ccc(Cl)c(Cl)c3)CC2)cnn1-c1nn2cccc2c(=O)[nH]1 : its log10(IC50) reads 0.60

log10(IC50) measured on Cc1c(C(=O)N2CCC3(CC2)CC(F)(F)C3)cnn1-c1nn2cccc2c(=O)[nH]1 = 0.30

###

Quick record of pIC50 values for SNAP-hSPR (sepiapterin reductase, SPR) (Homo sapiens, UniProt P35270).
# reply with the number alone; pIC50 is -log10 of concentration in mol/L

Data point: Cc1cc(=O)[nH]c(-n2ccc(C(=O)N3CCc4ccccc43)n2)n1 ; pIC50 = 7.52

For record Cc1c(C(=O)N2CCN(c3ccc(F)cc3)CC2)cnn1-c1nn2cccc2c(=O)[nH]1 the listed pIC50 is 9.00

Lab note: measured pIC50 of Cc1c(C(=O)N2CCCN(CCC(F)(F)F)CC2)cnn1-c1nn2cccc2c(=O)[nH]1 was 8.40

Sure, the documented pIC50 for Cc1c(C(=O)N2CCCC(C(F)(F)F)C2)cnn1-c1nc2c(c(=O)[nH]1)CCC2 (stereo not shown) is 8.30

###

TARGET_OR_SYSTEM: SNAP-hSPR (sepiapterin reductase, SPR) (Homo sapiens, UniProt P35270)
Sequence (P35270 whole entry): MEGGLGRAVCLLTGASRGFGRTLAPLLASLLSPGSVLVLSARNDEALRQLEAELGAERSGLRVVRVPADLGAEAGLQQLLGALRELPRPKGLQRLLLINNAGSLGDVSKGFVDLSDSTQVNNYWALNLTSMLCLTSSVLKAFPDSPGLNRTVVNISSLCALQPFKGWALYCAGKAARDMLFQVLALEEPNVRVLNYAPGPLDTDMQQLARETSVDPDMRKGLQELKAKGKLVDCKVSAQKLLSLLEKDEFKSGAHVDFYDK
pIC50: −log10 of the molar value.
Respond with label 1 for pIC50 values of 8 and above, label 0 for values below.

Task: Quick check: does Cc1c(C(=O)N2CC3(C2)CC(F)(F)C3)cnn1-c1nc2c(ccn2C)c(=O)[nH]1 have pIC50 greater than or equal to 8?
Result: label 0

Task: For this compound, is measured pIC50 8 or higher? Cc1c(C(=O)N2CCc3nc(-c4ccc(Cl)cc4)sc3C2)cnn1-c1nn2cccc2c(=O)[nH]1
Result: label 1

Task: Textbook exercise: given the entry Cc1c(C(=O)N2C3CCC2CN(c2ccc(C(F)(F)F)cn2)C3)cnn1-c1nn2cccc2c(=O)[nH]1 , state whether its pIC50 is greater than or equal to 8.
Result: label 1

Task: Quick check, pIC50 >= 8? Cc1c(C(=O)N2CC3CCCC(C2)C3C(F)(F)F)cnn1-c1nn2cccc2c(=O)[nH]1 (centres unmarked)
Result: label 1

Task: Does pIC50 meet or surpass 8 for Cc1c(C(=O)N2CCN(CC(F)(F)F)CC2)cnn1-c1nc2cc[nH]c2c(=O)[nH]1 ?
Result: label 0

Task: Hi, just wondering whether Cc1cc(=O)[nH]c(-n2ncc(C(=O)N3CCOCC3)c2C(F)F)n1 shows pIC50 of 8 or higher.
Result: label 0

Task: Tell me whether pIC50 is at least 8 here: C=CCC(C#N)C1CCN(C(=O)c2cnn(-c3nn4cccc4c(=O)[nH]3)c2C)CC1 (centres unmarked)
Result: label 1

Task: Decide: is the reported value of pIC50 for CC1CCN(C(=O)c2cnn(-c3nn4cccc4c(=O)[nH]3)c2C2CC2)CC1 equal to or greater than 8?
Result: label 1

Task: Does Cc1c(C(=O)N2CCN(S(=O)(=O)c3cccc4cccnc34)CC2)cnn1-c1nn2cccc2c(=O)[nH]1 have a reported pIC50 of at least 8?
Result: label 1

Task: Does the reported pIC50 for Cc1cc(=O)[nH]c(-n2nc(C)c(CCC(=O)N3CCCCC3C)c2C)n1 (centres unmarked) fall at or above the 8 mark?
Result: label 0

Task: Determine whether measured pIC50 meets or exceeds 8 for Cc1c(C(=O)N2CC3CC(C2)N3CC(F)(F)F)cnn1-c1nc2c(c(=O)[nH]1)COC2
Result: label 0

Task: Could you verify whether the entry Cc1c(C(=O)N2CCc3nc(-c4ccncc4)sc3C2)cnn1-c1nn2cccc2c(=O)[nH]1 shows pIC50 of no less than 8?
Result: label 1

Task: For this compound, is measured pIC50 8 or higher? Cc1c(C(=O)N2CC(c3ccc(F)c(F)c3)C2)cnn1-c1nc2c(c(=O)[nH]1)CCC2
Result: label 1

Task: # check: pIC50 of CCn1ccc2c(=O)[nH]c(-n3ncc(C(=O)N4CC(N5CCC(F)(F)C5)C4)c3C)nc21 is greater than or equal to 8
Result: label 0

Task: Record Cc1c(C(=O)N2CCC2c2cncc(F)c2)cnn1-c1nn2cccc2c(=O)[nH]1 (centres unmarked) ; criterion: pIC50 no lower than 8. Met?
Result: label 1

Task: Does Cc1c(C(=O)O)cnn1-c1nc2c(c(=O)[nH]1)CCC2 have a reported pIC50 of at least 8?
Result: label 0
